meta.source: ChEMBL document CHEMBL1961873

Reported inhibition values for a set of molecules
# target-desc: SRSF protein kinase 3 (Homo sapiens);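 further: values are mean inhibition of MSSK1 (alias of SRPK3)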
# measurement-parameters: at 1 µM

- input-smiles: "Cc1ccc(C(=O)NC2CCCCC2)cc1-c1ccc(C(=O)NCC2CC2)cc1"
  inhibition: "0.5%"
- input-smiles: "CS(=O)(=O)CCN(CC#N)Cc1ccc(-c2ccc3ncnc(Nc4ccc(OCc5cccc(F)c5)c(Cl)c4)c3c2)o1"
  inhibition: "-0.95%"
- input-smiles: "CCn1c(-c2nonc2N)nc2c(N3CCCC3)nccc21"
  inhibition: "-1.21%"
- input-smiles: "COc1cccc(-n2ncc3c(N/N=C/c4cccc(F)c4)ncnc32)c1"
  inhibition: "-3.83%"
- input-smiles: "Nc1nc(-c2ccc3c(c2)C(=Cc2cc(Br)c(O)c(Br)c2)C(=O)N3)cs1"
  inhibition: "-1.79%"

###

# target-desc: Testis-specific serine/threonine-protein kinase 2 (Homo sapiens) (UniProt Q96PF2);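 further: each value is the mean percent inhibition of TSSK2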
# Sequence (Q96PF2 whole entry): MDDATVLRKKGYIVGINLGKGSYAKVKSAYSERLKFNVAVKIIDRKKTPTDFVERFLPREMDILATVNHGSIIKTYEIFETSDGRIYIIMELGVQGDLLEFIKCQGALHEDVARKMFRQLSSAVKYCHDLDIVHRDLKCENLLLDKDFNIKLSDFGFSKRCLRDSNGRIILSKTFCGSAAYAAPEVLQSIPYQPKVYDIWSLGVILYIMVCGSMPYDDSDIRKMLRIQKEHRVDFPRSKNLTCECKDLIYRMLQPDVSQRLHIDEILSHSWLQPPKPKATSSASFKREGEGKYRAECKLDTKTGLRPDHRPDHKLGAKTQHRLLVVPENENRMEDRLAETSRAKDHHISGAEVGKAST
# measurement-parameters: at 1 µM

- compound: "CC(=O)Nc1cccc(C#Cc2cncnc2Nc2ccc(OCc3cccc(F)c3)c(Cl)c2)n1"
  target-desc: "Testis-specific serine/threonine-protein kinase 2 (Homo sapiens) (UniProt Q96PF2)"
  inhibition: "5.54%"
- compound: "COc1cc2ncn(-c3cc(OCc4ccccc4Cl)c(C(N)=O)s3)c2cc1OC"
  target-desc: "Testis-specific serine/threonine-protein kinase 2 (Homo sapiens) (UniProt Q96PF2)"
  inhibition: "1.63%"
- compound: "COc1cc2ncn(-c3cc(OCc4ccccc4C(F)(F)F)c(C(N)=O)s3)c2cc1OC"
  target-desc: "Testis-specific serine/threonine-protein kinase 2 (Homo sapiens) (UniProt Q96PF2)"
  inhibition: "2.55%"
- compound: "O=C1NC(=O)C(c2ccc(Cl)cc2)=C1Nc1ccc(Cl)c(C(=O)O)c1"
  target-desc: "Testis-specific serine/threonine-protein kinase 2 (Homo sapiens) (UniProt Q96PF2)"
  inhibition: "-2.14%"
- compound: "CCN1CCC(CC(=O)Nc2n[nH]c3nc(-c4cccs4)c(Br)cc23)CC1"
  target-desc: "Testis-specific serine/threonine-protein kinase 2 (Homo sapiens) (UniProt Q96PF2)"
  inhibition: "-1.24%"
- compound: "CS(=O)(=O)Nc1ccc(N/C=C2\\C(=O)Nc3ccccc32)cc1"
  target-desc: "Testis-specific serine/threonine-protein kinase 2 (Homo sapiens) (UniProt Q96PF2)"
  inhibition: "-1.19%"
- compound: "Fc1cccc(COc2ccc(Nc3ncnc4cc(-c5ccc[nH]5)sc34)cc2Cl)c1"
  target-desc: "Testis-specific serine/threonine-protein kinase 2 (Homo sapiens) (UniProt Q96PF2)"
  inhibition: "2.13%"
- compound: "CC1=C(C(=O)Nc2ccc3[nH]ncc3c2)C(c2ccc(F)cc2)NC(=O)N1 (stereo unspecified)"
  target-desc: "Testis-specific serine/threonine-protein kinase 2 (Homo sapiens) (UniProt Q96PF2)"
  inhibition: "1.4%"
- compound: "COc1ccc(-c2coc3ncnc(N)c23)cc1"
  target-desc: "Testis-specific serine/threonine-protein kinase 2 (Homo sapiens) (UniProt Q96PF2)"
  inhibition: "0.95%"
- compound: "c1cnn2ncc(-c3ccnc(Nc4ccc5c(c4)OCCO5)n3)c2c1"
  target-desc: "Testis-specific serine/threonine-protein kinase 2 (Homo sapiens) (UniProt Q96PF2)"
  inhibition: "4.19%"
- compound: "CS(=O)(=O)CCNCc1nc(-c2ccc3ncnc(Nc4ccc(F)c(Cl)c4)c3c2)cs1"
  target-desc: "Testis-specific serine/threonine-protein kinase 2 (Homo sapiens) (UniProt Q96PF2)"
  inhibition: "1.08%"
- compound: "CCn1c(-c2nonc2N)nc2c(C#CC(C)(C)O)nc(OC[C@@H](N)c3ccccc3)cc21"
  target-desc: "Testis-specific serine/threonine-protein kinase 2 (Homo sapiens) (UniProt Q96PF2)"
  inhibition: "-0.44%"
- compound: "COc1ccc(COc2ccc(Cc3cnc(N)nc3N)cc2OC)cc1"
  target-desc: "Testis-specific serine/threonine-protein kinase 2 (Homo sapiens) (UniProt Q96PF2)"
  inhibition: "-0.65%"
- compound: "COc1ccc(-c2nn3ncccc3c2-c2ccnc(Nc3ccc(Cl)c(C(F)(F)F)c3)n2)cc1"
  target-desc: "Testis-specific serine/threonine-protein kinase 2 (Homo sapiens) (UniProt Q96PF2)"
  inhibition: "5.15%"
- compound: "COc1cccc(-n2ncc3c(N/N=C/c4cccc(F)c4)ncnc32)c1"
  target-desc: "Testis-specific serine/threonine-protein kinase 2 (Homo sapiens) (UniProt Q96PF2)"
  inhibition: "0.82%"
- compound: "[O-][S+]1CCN(Cc2ccc(-c3ccc4ncnc(Nc5ccc(OCc6ccccc6)c(F)c5)c4c3)o2)CC1"
  target-desc: "Testis-specific serine/threonine-protein kinase 2 (Homo sapiens) (UniProt Q96PF2)"
  inhibition: "-1.37%"
- compound: "NC(=O)c1ccc(-c2nc(-c3ccccn3)c(-c3ccc4c(c3)OCO4)[nH]2)cc1"
  target-desc: "Testis-specific serine/threonine-protein kinase 2 (Homo sapiens) (UniProt Q96PF2)"
  inhibition: "0.84%"
- compound: "CS(=O)(=O)CCNCc1ccc(-c2ccc3ncnc(Nc4ccc(OCc5cccc(F)c5)c(C(F)(F)F)c4)c3c2)o1"
  target-desc: "Testis-specific serine/threonine-protein kinase 2 (Homo sapiens) (UniProt Q96PF2)"
  inhibition: "3.87%"
- compound: "Nc1ncnc2occ(-c3ccc(NC(=O)Nc4cccc(C(F)(F)F)c4)cc3)c12"
  target-desc: "Testis-specific serine/threonine-protein kinase 2 (Homo sapiens) (UniProt Q96PF2)"
  inhibition: "2.55%"
- compound: "Cc1ccc(NC(=O)c2ccnc(N3CCCC3)c2)cc1-c1ccc(C(=O)NCC2CC2)cc1"
  target-desc: "Testis-specific serine/threonine-protein kinase 2 (Homo sapiens) (UniProt Q96PF2)"
  inhibition: "1.39%"
- compound: "CN(C)c1cc2c(Nc3ccc4nc(Cc5ccccc5)[nH]c4c3)ncnc2cn1"
  target-desc: "Testis-specific serine/threonine-protein kinase 2 (Homo sapiens) (UniProt Q96PF2)"
  inhibition: "3.59%"
- compound: "COc1cc(C)c(NC(=O)CN(C)C)cc1Nc1nc(Nc2cccc(F)c2C(N)=O)c2cc[nH]c2n1"
  target-desc: "Testis-specific serine/threonine-protein kinase 2 (Homo sapiens) (UniProt Q96PF2)"
  inhibition: "73.2%"
- compound: "COc1cc(C=NNc2ncnc3c2cnn3-c2ccccc2)ccc1O"
  target-desc: "Testis-specific serine/threonine-protein kinase 2 (Homo sapiens) (UniProt Q96PF2)"
  inhibition: "-1.3%"
- compound: "NS(=O)(=O)c1ccc(N/N=C2\\C(=O)Nc3ccc(C(=O)NCCc4c[nH]cn4)cc32)cc1"
  target-desc: "Testis-specific serine/threonine-protein kinase 2 (Homo sapiens) (UniProt Q96PF2)"
  inhibition: "1.67%"
- compound: "CC(C)=Cc1cccc2c1/C(=N/Nc1ccc(S(N)(=O)=O)cc1)C(=O)N2"
  target-desc: "Testis-specific serine/threonine-protein kinase 2 (Homo sapiens) (UniProt Q96PF2)"
  inhibition: "0.88%"
- compound: "CCn1c(-c2nonc2N)nc2ccncc21"
  target-desc: "Testis-specific serine/threonine-protein kinase 2 (Homo sapiens) (UniProt Q96PF2)"
  inhibition: "-0.93%"
- compound: "O=C1NC(=O)C(N2CCc3ccccc32)=C1c1ccc(Cl)cc1"
  target-desc: "Testis-specific serine/threonine-protein kinase 2 (Homo sapiens) (UniProt Q96PF2)"
  inhibition: "0.39%"
- compound: "COc1ccccc1Nc1ncc(-c2ccccc2)o1"
  target-desc: "Testis-specific serine/threonine-protein kinase 2 (Homo sapiens) (UniProt Q96PF2)"
  inhibition: "2.11%"
- compound: "Cc1ccc(C(=O)NC2CCCCC2)cc1-c1ccc(C(=O)NCC2CC2)cc1"
  target-desc: "Testis-specific serine/threonine-protein kinase 2 (Homo sapiens) (UniProt Q96PF2)"
  inhibition: "-1.47%"
- compound: "Nc1nc(-c2ccccn2)c(-c2ccc3ncccc3n2)s1"
  target-desc: "Testis-specific serine/threonine-protein kinase 2 (Homo sapiens) (UniProt Q96PF2)"
  inhibition: "1.96%"
- compound: "Cc1nn(C)c2cc(N(C)c3ccnc(Nc4cccc(S(N)(=O)=O)c4)n3)ccc12"
  target-desc: "Testis-specific serine/threonine-protein kinase 2 (Homo sapiens) (UniProt Q96PF2)"
  inhibition: "2.71%"
- compound: "CCc1cccc(NC(=O)Nc2ccc(Oc3ccc4nc(NC(=O)OC)[nH]c4c3)cc2)c1"
  target-desc: "Testis-specific serine/threonine-protein kinase 2 (Homo sapiens) (UniProt Q96PF2)"
  inhibition: "1.72%"
- compound: "NC(=O)c1cccc(Nc2nccc(Nc3cccc4[nH]ncc34)n2)c1"
  target-desc: "Testis-specific serine/threonine-protein kinase 2 (Homo sapiens) (UniProt Q96PF2)"
  inhibition: "-1.85%"
- compound: "N#Cc1c(NC(=O)c2cccc3ccccc23)sc2c1CCCC2"
  target-desc: "Testis-specific serine/threonine-protein kinase 2 (Homo sapiens) (UniProt Q96PF2)"
  inhibition: "0.92%"
- compound: "O=C1Nc2ccc(C(=O)c3ccco3)cc2C1=Cc1cc(Cl)c(O)c(Cl)c1"
  target-desc: "Testis-specific serine/threonine-protein kinase 2 (Homo sapiens) (UniProt Q96PF2)"
  inhibition: "1.41%"
- compound: "CS(=O)(=O)CCNCc1ccc(-c2ccc3ncnc(Nc4ccc(OCc5ccccc5)c(Cl)c4)c3c2)o1"
  target-desc: "Testis-specific serine/threonine-protein kinase 2 (Homo sapiens) (UniProt Q96PF2)"
  inhibition: "0.89%"
